# Protocol Description: S. cerevisiae RM11-1a growth modifiers, primary screen, strain RM11-1a, OD600, basal, 24 h (AID 1177);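 note: cultures grown under basal conditions with no added stressor; test concentration not given here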
# Protocol Conditions: OD600, 24 h, higher = more signal, called active from +8 up or from −8 down
Observed Property: z-score
Returns: the value as a bare number; no unit string appended.

Given item `COCCOC(=O)N1C(=O)[C@@]2(c3cc(C#CCCO)ccc31)[C@H](c1ccc(O)cc1)N1[C@H](c3ccccc3)[C@H](c3ccccc3)OC(=O)[C@H]1[C@@H]2C(=O)Nc1nc2ccccc2s1` , the value recorded as its z-score is 0.39

Given item `COc1cc2c(cc1OC)CN(C(=O)[C@@H]1[C@H]3C(=O)O[C@H](c4ccccc4)[C@H](c4ccccc4)N3[C@H](c3ccccc3OCCO)[C@@]13C(=O)Nc1ccccc13)CC2` , the value recorded as its z-score is 3.1

Given item `CO[C@H]1COC(=O)[C@H](CCSC)NC(=O)CC=C[C@@H](C)COC(=O)[C@@H](OCc2ccccc2)C=C[C@@H]1C` , the value recorded as its z-score is 0.449

Given item `COCCOC(=O)N1C(=O)[C@@]2(c3cc(C#CCNC(N)=O)ccc31)[C@H](c1ccc(OCCO)cc1)N1[C@H](c3ccccc3)[C@H](c3ccccc3)OC(=O)[C@H]1[C@@H]2C(=O)N1CCCCCCC1` , the value recorded as its z-score is 2

Given item `C[C@]1(C(=O)NCCN2CCOCC2)c2ccccc2C(=O)N(Cc2ccccc2)[C@H]1c1ccc(CO)cc1` , the value recorded as its z-score is 1.2

Given item `COCCOC(=O)N1C(=O)[C@@]2(c3cc(C#CC4=CCCCC4)ccc31)[C@H](C(=O)NC[C@H](O)c1ccccc1)[C@H]1C(=O)O[C@H](c3ccccc3)[C@H](c3ccccc3)N1[C@@H]2c1ccccc1OCCO` , the value recorded as its z-score is 2.69

Given item O=C1C2C=CC(C(O)C(c3ccccc3)c3ccccc3)N(Nc3ccc([N+](=O)[O-])cc3)C2C(=O)N1c1ccccc1 (configuration not stated) , the value recorded as its z-score is 0.601

Given item C#CCNC(/C=C/c1ccccc1)CO (configuration not stated) , the value recorded as its z-score is 1.62

Given item `COc1cccc([C@H]2N[C@H](C(=O)O)CC[C@@H]2C)c1` , the value recorded as its z-score is -0.393

Given item `Cc1ccc(N2C(=O)c3ccccc3[C@](C)(C(=O)NCC(C)C)[C@@H]2c2ccc(CO)cc2)nc1` , the value recorded as its z-score is 1.42

Given item `CC(C)CNC(=O)[C@@]1(C)c2ccccc2C(=O)N(Cc2ccc(OC(F)(F)F)cc2)[C@H]1c1ccc(CO)cc1` , the value recorded as its z-score is -0.229

Given item `C=CCNC(=O)[C@H]1[C@@H]2C(=O)O[C@@H](c3ccccc3)[C@@H](c3ccccc3)N2[C@@H](c2ccc(O)cc2)[C@]12C(=O)Nc1ccc(C#CCNC(N)=O)cc12` , the value recorded as its z-score is -0.381

Given item `C=C(CCCC)/C(=C/C[C@H](OC(=O)c1ccncc1)c1cccc(OCCO)c1)c1cc(C(=O)OC)ccc1OC` , the value recorded as its z-score is -0.549

Given item `C=CCc1cccc([C@H]2N[C@H](C(=O)O)CC[C@@H]2C)c1` , the value recorded as its z-score is 1.14

Given item `C#CCCCON=C1C[C@@H](O)[C@@H](O)[C@@H]2[C@@H]3C(=O)N(Cc4ccc5c(c4)OCO5)C(=O)[C@@H]3CC[C@H]12` , the value recorded as its z-score is 0.162

Given item `C=C(COC)/C(=C/C[C@H](OC(C)=O)c1ccc(OCCO)cc1)c1cnc2ccccc2c1` , the value recorded as its z-score is 1.65

Given item `COC(=O)c1c(CC[C@@H](CO)NC(=O)N[C@H](Cn2cc(-c3cncn3C)nn2)C(C)C)oc(C(C)=O)c1C(=O)OC` , the value recorded as its z-score is -1.06

Cited source for all entries: PubChem BioAssay
